The following compounds are shown together with reported activity change, negative = inhibition values.
- target.or.test.system: Nicotinamide N-methyltransferase (Homo sapiens) (UniProt P40261)
- Sequence (P40261 whole entry, looked up): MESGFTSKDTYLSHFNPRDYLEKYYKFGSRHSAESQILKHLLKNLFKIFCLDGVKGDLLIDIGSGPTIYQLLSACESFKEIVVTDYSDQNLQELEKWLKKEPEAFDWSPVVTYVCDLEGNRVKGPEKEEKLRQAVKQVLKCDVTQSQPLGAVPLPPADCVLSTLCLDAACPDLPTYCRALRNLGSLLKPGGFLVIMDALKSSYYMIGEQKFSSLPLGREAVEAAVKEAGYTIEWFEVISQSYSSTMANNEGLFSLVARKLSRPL
- measurement.notes: Primary Screen for Target Class Profiling of Small Molecule Inhibitors of Methyltransferases; also: % is scaled to controls: 0 for no effect and ±100 for the full control effect
- test.parameters: purified enzyme, MTase-Glo SAH luminescence; measured here: NNMT inhibition; at 40 µM; stronger effect = lower value
About 970 (3.9%) of roughly 25,000 compounds were called active. Inconclusive results (about 8%) are left out. Shown is part of a subset that was picked to be rich in actives.

compound	target.or.test.system	activity change, negative = inhibition
COc1cc2ncnc(Nc3cccc(Cl)c3F)c2cc1OC(=O)N1CCN(C)C[C@H]1C	Nicotinamide N-methyltransferase (Homo sapiens) (UniProt P40261)	-5.9%
CCCc1sc(NC(=O)C[C@H]2NC(=O)c3ccccc3NC2=O)nc1C(=O)OC	Nicotinamide N-methyltransferase (Homo sapiens) (UniProt P40261)	-24.7%
Cc1cccc(CSc2nnc3n(CC(C)C)c(=O)c4ccccc4n23)c1	Nicotinamide N-methyltransferase (Homo sapiens) (UniProt P40261)	-10.9%
CCC(CC)C(=O)NC[C@H]1O[C@@H](CC(=O)N2CCC(C)CC2)[C@H](O)[C@@H]1O	Nicotinamide N-methyltransferase (Homo sapiens) (UniProt P40261)	-4.29%
Cc1nn(-c2ccccc2)c2c1C(C)N(C1CCN(C(=O)NC3CCCC3)C1)C2=O (centres undefined)	Nicotinamide N-methyltransferase (Homo sapiens) (UniProt P40261)	-12.4%
CCCCOc1ccc(CNC(=O)c2cc3n(n2)CC(C)(C(=O)NCc2ccccc2)N(C)C3=O)cc1 (centres undefined)	Nicotinamide N-methyltransferase (Homo sapiens) (UniProt P40261)	11.5%
Cc1cc2c(F)c(Oc3ncnn4cc(OCC(C)O)c(C)c34)ccc2[nH]1 (centres undefined)	Nicotinamide N-methyltransferase (Homo sapiens) (UniProt P40261)	-17.3%
Cc1cc(Nc2cc(N3CCN(C)CC3)nc(Sc3ccc(NC(=O)C4CC4)cc3)n2)n[nH]1	Nicotinamide N-methyltransferase (Homo sapiens) (UniProt P40261)	-11.1%
COc1ccc(S(=O)(=O)N2CCCCC2c2n[nH]c(C)n2)cc1 (centres undefined)	Nicotinamide N-methyltransferase (Homo sapiens) (UniProt P40261)	10.1%
COc1cc(NC(=O)Nc2cccc(CNC(=O)O[C@H]3CCOC3)c2)ccc1-c1cnco1	Nicotinamide N-methyltransferase (Homo sapiens) (UniProt P40261)	-22.8%
Cc1ccc(COc2ccc3c(-c4ccccc4)cc(=O)oc3c2)cc1	Nicotinamide N-methyltransferase (Homo sapiens) (UniProt P40261)	6.08%
CCOC(=O)c1cc(Nc2ccc(C(C)=O)cc2)c2cc(Cl)ccc2n1	Nicotinamide N-methyltransferase (Homo sapiens) (UniProt P40261)	6.54%
CCOc1ccc(NC(=O)N2Cc3c(sc4c3CCCC4)-n3cccc3C2c2ccc(C)cc2)cc1 (centres undefined)	Nicotinamide N-methyltransferase (Homo sapiens) (UniProt P40261)	-12.8%
COc1cccc(-c2ccc(C(=O)NCCN[S+](=O)([O-])c3cccs3)cc2)c1	Nicotinamide N-methyltransferase (Homo sapiens) (UniProt P40261)	-5.98%
C[C@]12CCC[C@](C)(C(=O)O)C1[C@@H](O)[C@@H](O)C13CC(CCC12)C(CO)(O[C@@H]1O[C@H](CO)[C@@H](O)[C@H](O)[C@H]1O)C3 (some centres undefined)	Nicotinamide N-methyltransferase (Homo sapiens) (UniProt P40261)	-7.28%
CCOC(=O)c1cc2n(n1)CC(C)(C(=O)NC1CCCC1)N(c1ccc(C)c(C)c1)C2=O (centres undefined)	Nicotinamide N-methyltransferase (Homo sapiens) (UniProt P40261)	1.82%
COC(=O)c1ncn2c1C(=O)N(Cc1ccc(OC)cc1)C(C)(C(=O)NCc1ccccc1)C2 (centres undefined)	Nicotinamide N-methyltransferase (Homo sapiens) (UniProt P40261)	-6.98%
C=C1C(=O)O[C@@H]2[C@H]1CC[C@H](C)[C@]1(CCC(=O)O1)C2(C)O (some centres undefined)	Nicotinamide N-methyltransferase (Homo sapiens) (UniProt P40261)	-3.81%
Cn1c(=O)c2ccc(C(=O)NC3CCCCC3)cc2n2c(SCc3cccc(Cl)c3)nnc12	Nicotinamide N-methyltransferase (Homo sapiens) (UniProt P40261)	1.84%
